Molecular target: T1, mouse vascular endothelial growth factor receptor-2 Fc chimera (Flk-1-Fc) (mouse, UniProt P35918 20-762)
T1 construct: purchased from R&D Systems; also called mouse VEGF-R2-Fc; not shown: Fc part of the purchased chimera
T1 sequence (P35918 20-762, change not shown): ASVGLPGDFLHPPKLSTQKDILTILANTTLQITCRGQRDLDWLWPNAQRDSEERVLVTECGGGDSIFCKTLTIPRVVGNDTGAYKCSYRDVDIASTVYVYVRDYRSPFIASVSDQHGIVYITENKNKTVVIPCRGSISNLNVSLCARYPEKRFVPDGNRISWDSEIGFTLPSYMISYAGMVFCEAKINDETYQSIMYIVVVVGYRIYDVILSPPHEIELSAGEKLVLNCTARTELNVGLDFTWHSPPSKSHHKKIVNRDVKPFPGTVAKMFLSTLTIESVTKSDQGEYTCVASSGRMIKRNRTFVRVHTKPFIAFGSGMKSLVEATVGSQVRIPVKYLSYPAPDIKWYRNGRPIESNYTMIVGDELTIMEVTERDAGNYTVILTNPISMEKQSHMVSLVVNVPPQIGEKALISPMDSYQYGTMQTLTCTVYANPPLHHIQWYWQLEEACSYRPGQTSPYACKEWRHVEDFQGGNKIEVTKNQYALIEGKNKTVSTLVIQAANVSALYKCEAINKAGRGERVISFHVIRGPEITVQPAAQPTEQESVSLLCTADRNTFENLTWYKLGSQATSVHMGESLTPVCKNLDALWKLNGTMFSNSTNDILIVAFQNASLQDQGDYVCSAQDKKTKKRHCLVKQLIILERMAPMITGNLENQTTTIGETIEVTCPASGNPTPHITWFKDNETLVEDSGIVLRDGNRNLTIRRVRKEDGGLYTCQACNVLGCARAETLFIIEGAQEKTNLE
Assay: BIAcore, target-Fc immobilized
Endpoint: kon (M⁻¹ s⁻¹)
I only need the number, in M⁻¹ s⁻¹, no unit after it.

The examples below pair each entry with its known result.
INSERT INTO results (binder, value) VALUES
  ('E6 (designed binder, Del 1-8 10Fn3 clone; Flag-tagged in vitro translated protein in the radioactive assay, His6-tagged E. coli protein in BIAcore; tags left out) EVVAATPTSLLISWRHPHFPTRYYRITYGETGGNSPVQEFTVPLQPPTATISGLKPGVDYTITGYAVTDGWNGRLLSIPISINYRT', 670000),
  ('E18 (designed binder, Del 1-8 10Fn3 clone; Flag-tagged in vitro translated protein in the radioactive assay, His6-tagged E. coli protein in BIAcore and cell assays; tags left out) EVVAATPTSLLISWRHPHFPTRYYRITYGETGGNSPVQEFTVPLQPPTATISGLKPGVDYTITGYAVTVERNGRELNTPISINYRT', 600000),
  ('E29 (designed binder, Del 1-8 10Fn3 clone; Flag-tagged in vitro translated protein in the radioactive assay, His6-tagged E. coli protein in BIAcore and cell assays; tags left out) EVVAATPTSLLISWRHPHFPTRYYRITYGETGGNSPVQEFTVPLQPPTATISGLKPGVDYTITGYAVTVERNGRVLMTPISINYRT', 790000),
  ('E19 (designed binder, Del 1-8 10Fn3 clone; Flag-tagged in vitro translated protein in the radioactive assay, His6-tagged E. coli protein in BIAcore and cell assays; tags left out) EVVAATPTSLLISWRHPHFPTRYYRITYGETGGNSPVQEFTVPLQPPTATISGLKPGVDYTITGYAVTVERNGRHLMTPISINYRT', 660000),
  ('E26 (designed binder, Del 1-8 10Fn3 clone; Flag-tagged in vitro translated protein in the radioactive assay, His6-tagged E. coli protein in BIAcore and cell assays; tags left out) EVVAATPTSLLISWRHPHFPTRYYRITYGETGGNSPVQEFTVPLQPPTATISGLKPGVDYTITGYAVTVERNGRELMTPISINYRT', 220000),
  ('E25 (designed binder, Del 1-8 10Fn3 clone; Flag-tagged in vitro translated protein in the radioactive assay, His6-tagged E. coli protein in BIAcore; tags left out) EVVAATPTSLLISWRHPHFPTRYYRITYGETGGNSPVQEFTVPLQPPTATISGLKPGVDYTITGYAVTLERNGRELMTPISINYRT', 500000);

Attention now turns to another entry.
QUERY: Fill in the blank: the reported kon of M5FL (designed binder, extension and tag left out) VSDVPRDLEVVAATPTSLLISWRHPHFPTRYYRITYGETGGNSPVQEFTVPLQPPLATISGLKPGVDYTITGYAVTKERNGRELFTPISINYRT is ____.
RESULT: 280000
